- System: chickweed (common chickweed, Stellaria media)
- PROTOCOL: Test C postemergence greenhouse herbicide test
- Format: in vivo
- STATED CONDITIONS: 125 g ai/ha
REPORTED PROPERTY: Plant response rating
Give bare numbers.

Cc1cc(=O)n(-c2ccc(F)cc2)nc1Cc1ccnc(C(F)(F)F)c1; 60
Cc1cc(=O)n(-c2ccc(C(F)(F)F)cc2)nc1Cc1ccnc(C(F)(F)F)c1; 90
Cc1cc(=O)n(-c2ccc(F)cc2)nc1Oc1ccnc(C(F)(F)F)c1; 35
COc1cc(=O)n(-c2ccc(F)cc2)nc1Cc1ccnc(C(F)(F)F)c1; 85
COc1cc(=O)n(-c2ccc(C(F)(F)F)cc2)nc1Cc1ccnc(C(F)(F)F)c1; 90

# input for lookup
*Q* Name the reported Plant response rating value associated with the compound `Cc1cc(Oc2ccnc(C(F)(F)F)c2)nn(-c2ccc(C(F)(F)F)cc2)c1=O`
*A* 95

====

Exercise: state measured Plant response rating for each of the compounds provided.
- Test system: deadnettle (henbit deadnettle, Lamium amplexicaule)
- PROTOCOL: Test D pre-/postemergence controlled growth environment herbicide test
- Type: in vivo
- STATED CONDITIONS: Postemergence, 125 g ai/ha, scale 0 to 100
Numbers only.

// known answers, use as guide
COc1cc(=O)n(-c2ccc(F)cc2)nc1Cc1ccnc(C(F)(F)F)c1 [Compound 17]; 65
Cc1cc(=O)n(-c2ccc(F)cc2)nc1Oc1ccnc(C(F)(F)F)c1 [Compound 14]; 65
Cc1cc(=O)n(-c2ccc(C(F)(F)F)cc2)nc1Cc1ccnc(C(F)(F)F)c1 [Compound 2]; 70

# input for lookup
*Q* Name the reported Plant response rating value associated with the compound Cc1cc(=O)n(-c2ccc(F)cc2)nc1Cc1ccnc(C(F)(F)F)c1 [Compound 1]
*A* 35

====

- Tested on: kochia (Kochia scoparia)
- PROTOCOL: Test D pre-/postemergence controlled growth environment herbicide test
- Format: in vivo
- STATED CONDITIONS: Postemergence, 31 g ai/ha, scale 0 to 100
Exercise: state measured Plant response rating for each of the molecules provided.
Answers are plain numbers.

Cc1cc(=O)n(-c2ccc(C(F)(F)F)cc2)nc1Cc1ccnc(C(F)(F)F)c1; 40
Cc1cc(=O)n(-c2ccc(F)cc2)nc1Oc1ccnc(C(F)(F)F)c1; 60
Cc1cc(=O)n(-c2ccc(F)cc2)nc1Cc1ccnc(C(F)(F)F)c1; 15

# input for lookup
*Q* Name the reported Plant response rating value associated with the molecule `COc1cc(=O)n(-c2ccc(F)cc2)nc1Cc1ccnc(C(F)(F)F)c1`
*A* 25

====

- Test system: corn (Zea mays)
- PROTOCOL: Test C pre-/postemergence greenhouse herbicide test
- Assay type: in vivo
- STATED CONDITIONS: Zea mays, pre-emergence; Corn; Preemergence; 250 g ai/ha; read-out: Plant response rating
REPORTED PROPERTY: plant injury at 250 g/ha (%)
One number for each entry, in %.

// known answers, use as guide
CCOc1cc(=O)n(-c2ccc(F)cc2)nc1Cc1ccnc(C(F)(F)F)c1 [Compound 25]; 45
COc1cc(=O)n(-c2ccc(F)cc2)nc1Cc1ccnc(C(F)(F)F)c1 [Compound 17]; 100
Cc1cc(=O)n(-c2ccc(F)cc2)nc1Oc1ccnc(C(F)(F)F)c1 [Compound 14]; 75
COc1cc(=O)n(-c2ccc(C(F)(F)F)cc2)nc1Cc1ccnc(C(F)(F)F)c1 [Compound 16]; 75
Cc1cc(=O)n(-c2ccc(F)cc2)nc1Cc1ccnc(C(F)(F)F)c1 [Compound 1]; 95

*Q* Name the reported plant injury at 250 g/ha value associated with the compound Cc1cc(=O)n(-c2ccc(C(F)(F)F)cc2)nc1Cc1ccnc(C(F)(F)F)c1 [Compound 2]
*A* 75

====

- Tested on: canarygrass (Phalaris minor)
- PROTOCOL: Test D pre-/postemergence controlled growth environment herbicide test
- Type: in vivo
- STATED CONDITIONS: Preemergence, 31 g ai/ha, scale 0 to 100
Exercise: state measured Plant response rating for each of the compounds provided.

// known answers, use as guide
Cc1cc(=O)n(-c2ccc(F)cc2)nc1Cc1ccnc(C(F)(F)F)c1; 0
Cc1cc(=O)n(-c2ccc(F)cc2)nc1Oc1ccnc(C(F)(F)F)c1; 5
COc1cc(=O)n(-c2ccc(F)cc2)nc1Cc1ccnc(C(F)(F)F)c1; 0

# input for lookup
*Q* Name the reported Plant response rating value associated with the compound `Cc1cc(=O)n(-c2ccc(C(F)(F)F)cc2)nc1Cc1ccnc(C(F)(F)F)c1`
*A* 0

====

- Test system: pigweed (Amaranthus retroflexus)
- PROTOCOL: Test C pre-/postemergence greenhouse herbicide test
- Format: in vivo
- STATED CONDITIONS: Amaranthus retroflexus, post-emergence; Pigweed; Postemergence; 125 g ai/ha; read-out: Plant response rating
- Description: […]
REPORTED PROPERTY: pest or weed control at 125 g/ha (%)
One number for each entry, in %.

COc1cc(=O)n(-c2ccc(C(F)(F)F)cc2)nc1Cc1ccnc(C(F)(F)F)c1; 95

For each of the items listed, what is its pest or weed control at 125 g/ha?
1. COc1cc(=O)n(-c2ccc(F)cc2)nc1Cc1ccnc(C(F)(F)F)c1
2. Cc1cc(=O)n(-c2ccc(F)cc2)nc1Cc1ccnc(C(F)(F)F)c1
3. Cc1cc(Oc2ccnc(C(F)(F)F)c2)nn(-c2ccc(C(F)(F)F)cc2)c1=O
4. Cc1cc(=O)n(-c2ccc(F)cc2)nc1Oc1ccnc(C(F)(F)F)c1
5. Cc1cc(=O)n(-c2ccc(C(F)(F)F)cc2)nc1Cc1ccnc(C(F)(F)F)c1

*A*
[60, 65, 95, 80, 60]

====

- Test system: foxtail, giant (giant foxtail, Setaria faberii)
- PROTOCOL: Test A pre-/postemergence greenhouse herbicide test
- Type: in vivo
- STATED CONDITIONS: Preemergence, 125 g ai/ha; 0 to 100 scale (0 no effect, 100 complete control), approx. 10 d
REPORTED PROPERTY: Plant response rating, Foxtail, Giant
Answers are plain numbers.

// known answers, use as guide
Cc1cc(=O)n(-c2ccc(F)cc2)nc1Oc1cc(C(F)(F)F)ccn1; 0
Cc1cc(Oc2cc(C(F)(F)F)ccn2)nn(-c2ccc(F)cc2)c1=O; 0
Cc1cc(=O)n(-c2cccc(C(F)(F)F)c2)nc1Oc1ccnc(C(F)(F)F)c1; 70
CCOc1cc(=O)n(-c2ccc(C(F)(F)F)cc2)nc1Cc1ccnc(C(F)(F)F)c1; 100

# input for lookup
*Q* Name the reported Plant response rating, Foxtail, Giant value associated with the molecule `CN(C)c1cc(=O)n(-c2ccc(C(F)(F)F)cc2)nc1Cc1ccnc(C(F)(F)F)c1`
*A* 30

====

- Tested on: morningglory (Ipomoea spp.)
- PROTOCOL: Test A pre-/postemergence greenhouse herbicide test
- Assay type: in vivo
- STATED CONDITIONS: Ipomoea, post-emergence, 240 h; Postemergence, 500 g ai/ha; 0 to 100 scale (0 no effect, 100 complete control), approx. 10 d; read-out: Plant response rating, Morningglory
REPORTED PROPERTY: pest or weed control at 500 g/ha (%)
One number for each entry, in %.

// known answers, use as guide
Cc1cc(=O)n(-c2ccc(F)cc2)nc1Oc1ccnc(C(F)(F)F)c1; 100
Cc1cc(=O)n(-c2ccc(F)cc2)nc1Cn1ccc(C(F)(F)F)n1; 70
Cc1cc(Oc2ccnc(C(F)(F)F)c2)nn(-c2ccc(C(F)(F)F)cc2)c1=O; 100
COc1cc(=O)n(-c2ccc(F)cc2)nc1Cc1ccnc(C(F)(F)F)c1; 100
CCOc1cc(=O)n(-c2ccc(F)cc2)nc1Cc1ccnc(C(F)(F)F)c1; 90
Cc1cc(=O)n(-c2ccc(C(F)(F)F)cc2)nc1Oc1ccnc(C(F)(F)F)c1; 100

For each of the items listed, what is its pest or weed control at 500 g/ha?
1. COc1cc(=O)n(-c2ccc(C(F)(F)F)cc2)nc1Cc1ccnc(C(F)(F)F)c1
2. CCOc1cc(=O)n(-c2ccc(F)cc2)nc1C(=O)c1ccnc(C(F)(F)F)c1
3. CCOc1cc(=O)n(-c2ccc(F)cc2)nc1C(O)c1ccnc(C(F)(F)F)c1 (stereo not drawn)

*A*
100
100
60

====

Exercise: state measured pest or weed control at 250 g/ha for each of the compounds provided.
- Tested on: nutsedge, yellow (yellow nutsedge, Cyperus esculentus)
- PROTOCOL: Test C pre-/postemergence greenhouse herbicide test
- Format: in vivo
- STATED CONDITIONS: Cyperus, post-emergence; Nutsedge, Yellow; Postemergence; 250 g ai/ha; read-out: Plant response rating
Numbers only, in %.

// known answers, use as guide
COc1cc(=O)n(-c2ccc(F)cc2)nc1Cc1ccnc(C(F)(F)F)c1 [Compound 17]; 10
Cc1cc(=O)n(-c2ccc(F)cc2)nc1Oc1ccnc(C(F)(F)F)c1 [Compound 14]; 10
COc1cc(=O)n(-c2ccc(C(F)(F)F)cc2)nc1Cc1ccnc(C(F)(F)F)c1 [Compound 16]; 20
Cc1cc(Oc2ccnc(C(F)(F)F)c2)nn(-c2ccc(C(F)(F)F)cc2)c1=O [Compound 6]; 15

For each of the items listed, what is its pest or weed control at 250 g/ha?
1. Cc1cc(=O)n(-c2ccc(F)cc2)nc1Cc1ccnc(C(F)(F)F)c1 [Compound 1]
2. Cc1cc(=O)n(-c2ccc(C(F)(F)F)cc2)nc1Cc1ccnc(C(F)(F)F)c1 [Compound 2]

*A*
[5, 10]
